Test system: rodent lifetime carcinogenesis bioassay, tumor incidence TD50
ASSAY PROCEDURE: carcinogenic potency in animals, long-term in vivo studies, CPDB compilation (AID 1745844)
CONDITIONS: rat; strain Fischer 344; females; by gavage; site: any site (literature study); lesion: several types; types named in the paper; dosed 103 weeks; study length 105 weeks
Calls of active or inactive are those of the source. How the calls were made is not given here.
Kindly state TD50 for each of the entries shown.

Field: example entries. Status: answers known.
MOLECULE: COc1c2occc2cc2ccc(=O)oc12
TD50: 45.6 mg/kg/day

MOLECULE: CC1(C)COC1=O
TD50: 200 mg/kg/day

MOLECULE: O=Cc1ccco1
TD50: 194 mg/kg/day (inactive)

MOLECULE: C=C(C)CCl
TD50: 323 mg/kg/day

MOLECULE: CC1=CC(=O)CC(C)(C)C1
TD50: 16600 mg/kg/day (inactive)

For each listed entry, give its TD50.
1. CC(Cl)CCl (centres undefined)
2. CCCCCl
3. Nc1ccc(Cl)cc1
4. CC(CCl)OC(C)CCl (centres undefined)

["240 mg/kg/day", "100 mg/kg/day (inactive)", "145 mg/kg/day", "65.6 mg/kg/day (inactive)"]

###

Test system: rodent lifetime carcinogenesis bioassay, tumor incidence TD50
ASSAY PROCEDURE: carcinogenic potency in animals, long-term in vivo studies, CPDB compilation (AID 1745844)
CONDITIONS: rat; strain Fischer 344; males; in drinking water; site: cecum + colon + colon, descending + rectum; lesion: mucinous cystadenocarcinoma + adenocarcinoma; dosed 88 weeks; study length 92 weeks
OBSERVED PROPERTY: TD50 (mg/kg/day)
One number for each entry, in mg/kg/day.

Entry COc1cc(-c2ccc(N)c(OC)c2)ccc1N — recorded TD50 = 38

###

Test system: rodent lifetime carcinogenesis bioassay, tumor incidence TD50
ASSAY PROCEDURE: carcinogenic potency in animals, long-term in vivo studies, CPDB compilation (AID 1745844)
CONDITIONS: mouse; strain Charles River CD1; males; in feed; site: lung; lesion: adenoma; dosed 105 weeks; study length 105 weeks
Activity calls are given as the source filed them. No rule for the calls is given here.
OBSERVED PROPERTY: TD50

Entry CC1=C(/C=C/C(C)=C/C=C/C(C)=C/C=C/C=C(C)/C=C/C=C(C)/C=C/C2=C(C)CCCC2(C)C)C(C)(C)CCC1 , TD50 reported as 71400 mg/kg/day (inactive)

###

System: rodent lifetime carcinogenesis bioassay, tumor incidence TD50
ASSAY PROCEDURE: carcinogenic potency in animals, long-term in vivo studies, CPDB compilation (AID 1745844)
CONDITIONS: mouse; strain ICR/Jcl; males; in feed; site: lung; lesion: one or several types; types not named; dosed 102 weeks; study length 106 weeks
Calls of active or inactive are those of the source. The rule behind the calls is not given here.
OBSERVED PROPERTY: TD50

Observed TD50 on rodent lifetime carcinogenesis bioassay, tumor incidence TD50, entry CCCCOC(=O)c1ccc(O)cc1 , equals 119000 mg/kg/day (inactive)

###

I'd be grateful if you could share measured TD50 for these entries.
Test system: rodent lifetime carcinogenesis bioassay, tumor incidence TD50
ASSAY PROCEDURE: carcinogenic potency in animals, long-term in vivo studies, CPDB compilation (AID 1745844)
CONDITIONS: mouse; strain B6C3F1; males; in feed; site: lung; lesion: alveolar/bronchiolar adenoma + alveolar/bronchiolar carcinoma; dosed 106 weeks; study length 106 weeks
Give bare numbers, in mg/kg/day.

SMILES: O=C1c2ccccc2-c2ccc3c4c(ccc1c24)-c1ccccc1C3=O
REPORTED VALUE: 19100

Next:
Bench note, rodent lifetime carcinogenesis bioassay, tumor incidence TD50: CCN(CC)C(=S)S[Te](SC(=S)N(CC)CC)(SC(=S)N(CC)CC)SC(=S)N(CC)CC , TD50 reads 228
